Target: his-labeled human IL-13 (immunogen A) (human) (UniProt P35225)
Assay: cell-based or functional assay
Test Readout: VCAM-1 fluorescence intensity, HUVEC + IL-13 0.5 ng/mL + TNFα; antibody at 0.004 nM
Quick one: just the number, no unit, thanks!

Worked examples, 3 binders total:
| Binder | Endpoint Result |
| --- | --- |
| c35E2C3 (mouse-human chimeric IL-13 antibody) (antibody, V domains shown) VH: EVQLQESGPGLAKPSQTLSLTCSVTGYSITSDYWNWIRKFPGNKLEYMGYISYNGNTYYNPSLKSQISITRDTSKNQLYLQLKSATTEDTATYYCARLAKWTWYFDIWGTGTTVTVSS VL: DIQMNQSPSSLSASLGDTITITCHASQNINVWLSWYQQKPGSLPKLLIYKASDLHTGVPSRFSGSGSGTGFTLTISSLQPEDIATYYCQQGQSYPYTFGGGTKLEIK | 452 |
| c29D9H8 (mouse-human chimeric IL-13 antibody) (antibody, V domains shown) VH: QVQLQQSGAELVRPGASVTLSCKASGYTFTDYEMHWVKQTPVHGLEWIGGIDPETGGTASNQKFKGKAILTADKSSSTAYMELRSLTSEDSAVYYCTSGDYFGGGPFAYWGQGTLVTVSA VL: DIKMTQSPSSMYASLGERVTITCKASQDINSYLSWFQQKPGKSPKTLIYRANRLVDGVPSRFSGSGSGQDYSLTISSLDYEDMGIYYCLQYDEFPYTFGGGTKLEIK | 393 |
| c28A2E11 (mouse-human chimeric IL-13 antibody) (antibody, V domains shown) VH: EVQLQQSGAELVKPGASVKLSCTASGFNIKDYYMHWVKQRTEQGLEWIGRIDPEDGETKYAPKFHDKATLTADTSSNTAYLQFSSLASEDTAVYYCTRYDYYGPFAYWGQGTLVTVSA VL: QAVVTQESVLTTSPGETVTLTCRSSTGAVTTSNYANWVQEKPDHLFTGLIGGTNNRAPGVPARFSGSLIGDKAALTITGAQTEDEAIYFCALWYINHFIFGSGTKVTVL | 395 |

Kindly review the next binder as well.
Entry under test: c70F10A10 (mouse-human chimeric IL-13 antibody) (antibody, V domains shown) VH: QIQLQQSGAELARPGASVKLSCKASGYTFTSYGISWVKQRDGQGLEWIGEIYPRSGNTDYNEKFKGKATLTADKSSSTAYMELRSLTSEDSAVYFCSSFTTLVPTDYFDYWGQGTTLTVSS VL: DIMMSQSPSSLAVSVGEKVSMTCKSSQSLLYSSNQKNYLAWYQQKPGQSPKMLIYWASTRETGVPDRFTGSGSGTDFTLTISSVMAEDLAVYYCHQYFTYPRTFGDGTKLEVK . Its VCAM-1 fluorescence intensity, HUVEC + IL-13 0.5 ng/mL + TNFα; antibody at 0.004 nM was 374
